- Tested on: TNF
- method: Cytokine Induction in Human Cells: tumor necrosis factor (TNF) secreted by PBMCs, ELISA; further: call rule not given here
- Type: cell-based
- test-parameters: Dose Concentration 1.0 μM, 18 to 24 hours
- Description: An in vitro human blood cell system was used to assess cytokine induction by compounds of the invention. […] Tumor necrosis factor (ℑ) (TNF) concentration is determined using an ELISA kit available from Genzyme, Cambridge, Mass. The results are expressed as pg/mL.
readout: TNF induction

>>> print(df.to_string())
                                    compound  recorded_value
 0  CCCCc1nc2c(N)nc3cccnc3c2n1CCNC(=O)c1ccc(C(=O)OC)cc1               −
 1           CCCCc1nc2c(N)nc3cccnc3c2n1CCCCN               +
 2           Cc1nc2c(N)nc3c(c2n1CC(C)C)CCNC3               +
 3  CCCCc1nc2c(N)nc3cccnc3c2n1CCCCNC(=O)c1ccc(N2CCOCC2)nc1               +
 4  CCCCc1nc2c(N)nc3cccnc3c2n1CCNC(=O)C(N)CC(C)C (stereo not drawn)               +
 5            CC(C)Cn1cnc2c(N)nc3c(c21)NCCC3               −
 6  CCCCc1nc2c(N)nc3cccnc3c2n1CCCCNC(=O)c1ccccc1               +
 7  CCCCc1nc2c(N)nc3cccnc3c2n1CCNC(=O)c1c(C)cc(C)cc1C               −
 8  CCCCc1nc2c(N)nc3cccnc3c2n1CCCCNC(=O)OCC1c2ccccc2-c2ccccc21               −
 9  CCCCc1nc2c(N)nc3cccnc3c2n1CCCCNC(=O)c1c(C)cc(C)cc1C               +
10  CCCCc1nc2c(N)nc3cccnc3c2n1CCNC(=O)CCn1cc([N+](=O)[O-])nc1C               −
11        CCCCc1nc2c(N)nc3c(c2n1CC(C)C)CCCN3               +
12  CCCCc1nc2c(N)nc3cccnc3c2n1CCNC(=O)Cc1ccc(SC)cc1               +
13  CCCCc1nc2c(N)nc3cccnc3c2n1CCNC(=O)Cc1cccnc1               −
14  CC(C)Cn1cnc2c(N)nc3ncccc3c21 [Example 9, hydrate]               −
15  CCCCc1nc2c(N)nc3cccnc3c2n1CCNC(=O)C(CC(C)C)NC(=O)OC(C)(C)C (stereo not drawn)               −
16  CCCCc1nc2c(N)nc3cccnc3c2n1CCNC(=O)C1(c2ccc(Cl)cc2)CCCC1               −
17            CC(C)Cn1cnc2c(N)nc3c(c21)CCCN3               −
18  CCCCc1nc2c(N)nc3cccnc3c2n1CCCCNC(=O)Nc1ccccc1               +
19  CCCCc1nc2c(N)nc3cccnc3c2n1CCCCNC(=O)CCC1CCCC1               +
20  CCCCc1nc2c(N)nc3cccnc3c2n1CCCCNC(=O)c1ccc(C#N)cc1               −
21  CCCCc1nc2c(N)nc3cccnc3c2n1CCNC(=O)c1c(OC)cccc1OC               −
22  CCCCc1nc2c(N)nc3c(c2n1CCNC(=O)c1cc(C(C)(C)C)c(O)c(C(C)(C)C)c1)NCCC3               −
23  CCCCc1nc2c(N)nc3cccnc3c2n1CCCCNC(=O)OCc1ccccc1               −
24  CCCCc1nc2c(N)nc3cccnc3c2n1CCNC(=O)CCC1CCCC1               +
25  CCCCc1nc2c(N)nc3cccnc3c2n1CCCCNC(=O)NC1CCCCC1               +
26  CCCCc1nc2c(N)nc3cccnc3c2n1CCNC(=O)C1CCC(=O)O1 (stereo not drawn)               −
27  CCCCc1nc2c(N)nc3cccnc3c2n1CCCCNC(=O)C1CCCC1               +
28  CCCCc1nc2c(N)nc3cccnc3c2n1CCCCNC(=O)Cc1ccc(OC)cc1               +
29  CCCCc1nc2c(N)nc3cccnc3c2n1CCCCNC(=O)c1cc(OC)c(OC)c(OC)c1               +
30        CCCCc1nc2c(N)nc3c(c2n1CC(C)C)NCCC3               +
31  CCCCc1nc2c(N)nc3cccnc3c2n1CCCCNC(=O)c1ccc(C(=O)c2ccccc2)cc1               +
32  CCCCc1nc2c(N)nc3cccnc3c2n1CCNC(=O)c1ccc(Br)s1               +
33  CCCCc1nc2c(N)nc3cccnc3c2n1CCNC(=O)C1CC(=O)N(Cc2ccc(Cl)cc2)C1 (stereo not drawn)               +
34  CCCCc1nc2c(N)nc3cccnc3c2n1CCCCNC(=O)CCCCCCCCC(=O)OC               −
35  CCCCc1nc2c(N)nc3cccnc3c2n1CCCCNC(=O)CSc1ncccn1               ±

Hello, the source for this data is patent US7678918B2, in case you need it.
